From: the supplement of paper PMC3334620

- Target Entity: Sut1 (UniProt P53032)
- Sequence: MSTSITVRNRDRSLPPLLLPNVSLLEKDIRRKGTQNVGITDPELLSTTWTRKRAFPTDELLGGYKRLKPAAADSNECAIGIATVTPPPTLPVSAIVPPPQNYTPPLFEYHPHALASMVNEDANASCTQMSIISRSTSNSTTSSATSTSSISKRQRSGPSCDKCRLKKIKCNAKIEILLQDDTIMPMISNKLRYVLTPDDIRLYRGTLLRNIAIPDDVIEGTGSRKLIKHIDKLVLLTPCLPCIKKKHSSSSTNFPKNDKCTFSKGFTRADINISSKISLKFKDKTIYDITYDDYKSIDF
- Assay Details: PBM E-score (8-mer binding enrichment) (E-score (-0.5 to 0.5)); higher = stronger / more preferred TF binding
- Study Conditions: protein concentration: 200 nM; construct: GST-full length
Over roughly 33,000 sequences, “E-score (-0.5 to 0.5)” has its median near -0.017; the highest 2% begin near 0.3. This is one part of a sample in which the highest values are shown more often than they occur.
Measured Attribute: PBM E-score
Numbers only.

# Item Sequence, Target Entity, PBM E-score
measured = [
    ("GCGGAGCC", "Sut1 (UniProt P53032)", 0.113),
]

Hi there! I need PBM E-score for each item below, if you can.
1. CCGGAGCA
2. GGGAGTGA
3. GAGTTAAA

Output line:
1: 0.307; 2: -0.0284; 3: 0.13
